# Test system: Rattus norvegicus
# protocol: Compound clearance in rats was measured after intravenous administration at 3 mg/kg
# Assay type: ADME, organism-based
# Set-up: dose 3 mg/kg, route intravenous
# testParameters: in vivo
parameter: Cl (mL/min/kg)

Completed entries (count: 2):
O=C(O)COC[C@H](O)[C@H](O)/C=C/C=C/C=C/C=C/[C@H](O)COc1ccc(F)cc1 :: 50
O=C(O)CCC[C@H](O)[C@H](O)/C=C/C=C/C#C/C=C/[C@@H](O)COc1ccc(F)cc1 :: 58

(I) O=C(O)CCCC(O)C(O)/C=C/C=C/C=C/C=C/[C@H](O)COc1ccc(F)cc1 (single isomer, unassigned)
(II) O=C(O)COC[C@H](O)[C@H](O)/C=C/C=C/C#C/C=C/[C@H](O)COc1ccc(F)cc1
(III) COC(=O)CCCC(O)C(O)/C=C/C=C/C=C/C=C/[C@H](O)COc1ccc(F)cc1 (single isomer, unassigned)
Data request: Put these in order: smallest Cl first, largest last. List labels; respect the requested ordering.
Data returned: II, I, III
(II: 7 mL/min/kg, I: 28 mL/min/kg, III: 51 mL/min/kg)

====

# protocol: F value of compound in rats was determined after peroral administration
# Format: ADME, organism-based
# testParameters: rat, in vivo, po
parameter: bioavailability (%)
Just the number in %, nothing appended.

Data request: Quickly give me recorded bioavailability for O=C(O)COC[C@H](O)[C@H](O)/C=C/C=C/C#C/C=C/[C@H](O)COc1ccc(F)cc1
Data returned: 14

====

# protocol: Half life period of compound was determined after intravenous administration at 2 mg/kg
# Assay type: ADME, organism-based, Canis lupus familiaris
# Design: dose 2 mg/kg, route intravenous
# testParameters: dog, in vivo
parameter: half-life (h)
Just the number in h, nothing appended.

Data request: Quickly give me recorded half-life for O=C(O)COC[C@H](O)[C@H](O)/C=C/C=C/C#C/C=C/[C@H](O)COc1ccc(F)cc1
Data returned: 2.7

====

# protocol: Bioavailability value of compound in rats was determined after peroral administration
# Assay type: ADME, organism-based
# testParameters: rat, in vivo, po
parameter: bioavailability (%)
Just the number in %, nothing appended.

Data request: Quickly give me recorded bioavailability for O=C(O)CCCC(O)C(O)/C=C/C=C/C=C/C=C/[C@H](O)COc1ccc(F)cc1 (single isomer, unassigned)
Data returned: 13

====

# protocol: Oral bioavailability in rat
# Type: ADME, organism-based
# testParameters: in vivo
parameter: bioavailability (%)

(I) O=C(O)COC[C@H](O)[C@H](O)/C=C/C=C/C=C/C=C/[C@H](O)COc1ccc(F)cc1
(II) COC(=O)CCCC(O)C(O)/C=C/C=C/C=C/C=C/[C@H](O)COc1ccc(F)cc1 (single isomer, unassigned)
(III) O=C(O)CCC[C@H](O)[C@H](O)/C=C/C=C/C#C/C=C/[C@@H](O)COc1ccc(F)cc1
Data request: Rank order required: bioavailability, descending. List labels; respect the requested ordering.
Data returned: III, II, I
(III: 28%, II: 12%, I: 4%)

====

# protocol: Half life period of compound was determined at a dose of 3 mg/kg by intravenous administration
# Format: ADME, organism-based
# Set-up: dose 3 mg/kg, route intravenous
# testParameters: rat, in vivo
parameter: half-life (min)

Completed entries (count: 3):
O=C(O)CCCC(O)C(O)/C=C/C=C/C=C/C=C/[C@H](O)COc1ccc(F)cc1 (single isomer, unassigned) :: 12
COC(=O)CCCC(O)C(O)/C=C/C=C/C=C/C=C/[C@H](O)COc1ccc(F)cc1 (single isomer, unassigned) :: 18
O=C(O)CCC[C@H](O)[C@H](O)/C=C/C=C/C#C/C=C/[C@@H](O)COc1ccc(F)cc1 :: 6

(1) O=C(O)COC[C@H](O)[C@H](O)/C=C/C=C/C=C/C=C/[C@H](O)COc1ccc(F)cc1
(2) O=C(O)COC[C@H](O)[C@H](O)/C=C/C=C/C#C/C=C/[C@H](O)COc1ccc(F)cc1
Data request: Compare half-life: is it lower for 1 or for 2 ? Lab note: record the label of whichever item you select.
Data returned: 1
(1: 78 min, 2: 138 min)

====

# protocol: Bioavailability of compound in dog was determined after peroral administration
# Assay type: ADME, organism-based, Canis lupus familiaris
# testParameters: in vivo, po
parameter: bioavailability (%)
Just the number in %, nothing appended.

Data request: Quickly give me recorded bioavailability for O=C(O)COC[C@H](O)[C@H](O)/C=C/C=C/C#C/C=C/[C@H](O)COc1ccc(F)cc1
Data returned: 40
